- measured_on: T1, human TL1A extracellular domain with N-terminal HIS and FLAG tag (human, UniProt O95150 72-251)
- T1 construct: the whole entry is named; also called TNFSF15
- T1 sequence: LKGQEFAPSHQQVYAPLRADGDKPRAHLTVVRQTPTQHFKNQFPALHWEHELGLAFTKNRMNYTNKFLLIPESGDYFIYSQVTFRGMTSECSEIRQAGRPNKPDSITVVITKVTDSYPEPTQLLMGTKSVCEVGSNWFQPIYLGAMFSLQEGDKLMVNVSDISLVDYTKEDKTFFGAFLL
- assay_notes: SPR Run 7, antibody on Protein A, TL1A 5 ug/mL, timepoint 220
experimental_endpoint: TL1A Binding Level (Late)
Remember to put the unit after the number in your answer.

Observe how each entry below is paired with its result.
binder="320-566 (antibody, human IgG1, name in Kabat numbering, V domains shown, full-length human IgG1, lambda) VH: QVQLVQSGAEVKKPGASVKVSCKASGYTFTSYDINWVRQAPGQGLEWMGWLNPNSGNTGAAQKFQGRVTMTADRSTSTAYMELSSLRSEDTAVYYCAREVPETAAFEYWGQGTLVTVSS VL: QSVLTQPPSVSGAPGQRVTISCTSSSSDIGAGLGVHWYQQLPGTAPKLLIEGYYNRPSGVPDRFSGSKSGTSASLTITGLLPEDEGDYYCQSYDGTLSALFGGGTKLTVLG" experimental_value="110 RU"
binder="320-520 (antibody, human IgG1, name in Kabat numbering, V domains shown, full-length human IgG1, lambda) VH: QVQLVQSGAEVKKPGASVKVSCKASGYTFTSYDINWVRQAPGQGLEWMGWLNPLSGNTGYAQKFQGRVTMTADRSTSTAYMELSSLRSEDTAVYYCAREVPETAAFEYWGQGTLVTVSS VL: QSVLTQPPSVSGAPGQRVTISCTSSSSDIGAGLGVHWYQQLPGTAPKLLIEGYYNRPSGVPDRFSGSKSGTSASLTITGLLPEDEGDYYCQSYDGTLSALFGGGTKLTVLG" experimental_value="162 RU"

Next:
Form: binder = 320-577 (antibody, human IgG1, name in Kabat numbering, V domains shown, full-length human IgG1, lambda) VH: QVQLVQSGAEVKKPGASVKVSCKASGYTFTSYDINWVRQAPGQGLEWMGWANPNSGNTGYAQKFQGRVTMTADRSTSTAYMELSSLRSEDTAVYYCAREVPETAAFEYWGQGTLVTVSS VL: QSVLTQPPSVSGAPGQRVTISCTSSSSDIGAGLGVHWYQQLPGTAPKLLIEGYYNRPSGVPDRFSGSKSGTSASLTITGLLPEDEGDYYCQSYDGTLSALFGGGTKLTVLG ; TL1A Binding Level (Late) = 90 RU
